Molecular target: T1, pKal (Homo sapiens, UniProt P03952)
T1 construct: two disulfide linked polypeptides; a heavy chain of approximately 52 kDa and a catalytic domain of approximately 34 kDa; host or cells: human plasma
T1 sequence (P03952 391-638 limits assumed): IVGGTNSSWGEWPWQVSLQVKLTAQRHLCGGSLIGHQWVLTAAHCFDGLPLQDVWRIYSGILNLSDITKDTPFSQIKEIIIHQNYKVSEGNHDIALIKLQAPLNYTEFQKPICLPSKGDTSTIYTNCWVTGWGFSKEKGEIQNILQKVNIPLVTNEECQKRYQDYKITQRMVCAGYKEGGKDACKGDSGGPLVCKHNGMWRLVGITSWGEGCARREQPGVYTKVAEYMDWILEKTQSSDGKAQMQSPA
T1 sequence (P03952 20-390 partner limits assumed): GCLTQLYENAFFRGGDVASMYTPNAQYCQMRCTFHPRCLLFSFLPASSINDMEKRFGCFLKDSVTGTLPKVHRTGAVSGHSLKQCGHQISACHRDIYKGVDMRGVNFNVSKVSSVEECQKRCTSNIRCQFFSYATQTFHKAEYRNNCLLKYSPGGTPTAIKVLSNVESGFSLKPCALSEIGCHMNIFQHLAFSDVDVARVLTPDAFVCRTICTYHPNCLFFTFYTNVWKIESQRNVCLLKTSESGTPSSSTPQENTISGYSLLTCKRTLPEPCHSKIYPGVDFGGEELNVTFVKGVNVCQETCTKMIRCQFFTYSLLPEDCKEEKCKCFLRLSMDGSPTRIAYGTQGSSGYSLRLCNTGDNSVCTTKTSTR
Assay: Fab fragments (small scale) tested for inhibition against human pKal in an in vitro protease cleavage assay
Assay type: biochemical
Conditions: Table 9

MOLECULE	Inhibit as a Fab?
X66-C02: single point mutation of M142-H08 (P1); HV-CDR3 GGLLLWFVELKSNYFDY (antibody, V domains shown) VL: QDIQMTQSPSSLSAFVGDRVTITCRASQPIDNYLNWYHQKPGKAPKLLIYAASRLQSGVPSRLSGSGFGTDFTLTISSLQPEDFGNYYCQQSYTVPYTFGGGTKVEIR VH: EVQLLESGGGLVQPGGSLRLSCAASGFTFSAYSMIWVRQAPGKGLEWVSYIRPSGGRTTYADSVKGRFTISRDNSKNTLYLQMNSLRAEDTAVYYCARGGLLLWFVELKSNYFDYWGQGTLVTVSSASTKGPSVFPLAPSSKS	No
X66-E09: single point mutation of M142-H08 (P1); HV-CDR3 GGLLLWFAELKSNYFDY (antibody, V domains shown) VL: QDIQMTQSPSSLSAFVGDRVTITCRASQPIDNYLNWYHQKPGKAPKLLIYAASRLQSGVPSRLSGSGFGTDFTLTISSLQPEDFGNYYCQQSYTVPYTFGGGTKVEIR VH: EVQLLESGGGLVQPGGSLRLSCAASGFTFSAYSMIWVRQAPGKGLEWVSYIRPSGGRTTYADSVKGRFTISRDNSKNTLYLQMNSLRAEDTAVYYCARGGLLLWFAELKSNYFDYWGQGTLVTVSSASTKGPSVFPLAPSSKS	No
